Data provenance is paper PMC10397247.

The following binders are listed with their measured interaction score values.
- subjectOfTest: T1, P2-AA-12HGe-H
- T1 chain: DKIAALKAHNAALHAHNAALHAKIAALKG
- runDescription: two-hybrid library CCmax;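 note: natural log of median RNA to DNA barcode read ratio; higher means stronger binding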
- protocolConditions: mean of both orientations

See these solved cases before continuing.
>>> reportedvalue("DEIAALEADNAALDADNAALDAEIAALEG [P1-AA-12HGe-D]")
-1.41
>>> reportedvalue("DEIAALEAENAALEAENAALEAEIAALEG [P1-AA]")
2.06
>>> reportedvalue("DEIAALEAKNAALKAKNAALKAEIAALEG [P1-AA-12HGe-K]")
-1.62
>>> reportedvalue("DEIAALEAWNAALWAWNAALWAEIAALEG [P1-AA-12HGe-W]")
-1.02
>>> reportedvalue("DEIAALEASNAALSASNAALSAEIAALEG [P1-AA-12HGe-S]")
-1.82

Record DEIAALEAMNAALMAMNAALMAEIAALEG [P1-AA-12HGe-M] , field interaction score: 0.866

Record DEIAALEATNAALTATNAALTAEIAALEG [P1-AA-12HGe-T] , field interaction score: -1.51
